Test: TOX21_p53_BLA_p4_viability: Viability Assessment in the Tox21 HCT-116 p53 Agonism Beta-lactamase Assay, Phase 4 (AID 2283597);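 further: hits lower the luminescence signal meaning cytotoxicity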
Description: TOX21_p53_BLA_p4 is a cell-based, single-readout assay that uses HCT116, a human intestinal cell line, […] in a 1536-well plate.TOX21_p53_BLA_p4_viability is an assay readout measuring cellular ATP content and detected with CellTiter-Glo Luciferase-coupled ATP quantitation.TOX21_p53_BLA_p4_viability used a type of viability reporter where loss-of-signal activity can be used to understand changes in the cell viability. […]
Records with an inconclusive call do not appear. Active and inactive are the calls of the source. How the source made its calls: active means hit-call score of the fitted dose curve at least 0.9, where 1 is the maximum; inconclusive means response in the unintended direction; inactive means score below 0.9.
Your response should consist of one outcome taken from YES (active), NO (inactive)

Answered examples (5):
compound=Clc1nc(Cl)c(Cl)c(Cl)c1Cl assigned_category=NO
compound=Cc1ccc(O)cc1 assigned_category=NO
compound="CC(C)CC(C)(O)C#CC(C)(O)CC(C)C (centres undefined)" assigned_category=NO
compound="Fc1ccccc1[C@@H](F)COC1CCC(Nc2ncnc3[nH]ncc23)CC1 (some centres undefined)" assigned_category=NO
compound=O=C(CCCCCCCCc1cccnc1)N1CCC(C=C(c2ccccc2)c2ccccc2)CC1 assigned_category=NO

Q: Per the assay record, what outcome was assigned to CCOC(=O)c1ccc(C2CCC(NC[C@H](O)COc3ccc(O)c(NS(C)(=O)=O)c3)CC2)cc1 (some centres undefined) ?
Ans: YES

Q: Another: COC(=O)c1c(Cl)c(Cl)c(C(=O)OC)c(Cl)c1Cl
Ans: NO

Q: What about this compound? Nc1nc2ncc(CNc3ccc(C(=O)N[C@@H](CCC(=O)O)C(=O)O)cc3)nc2c(=O)[nH]1
Ans: NO

Q: Also check O=C(O)c1cccc(Oc2ccccc2)c1
Ans: NO

###

Read-out: Pyruvate Dehydrogenase Kinase 4 (PDK4), PDK4 (gene 5166)
Assay: LTEA_HepaRG_PDK4: Life Technologies and Expression Analysis (LTEA) Assay for Pyruvate Dehydrogenase Kinase 4 (PDK4) using HepaRG (AID 2283525)
Conditions: mRNA level, 48 h; actives raise or lower the signal
The source made the active and inactive calls. How the source made its calls: active means hit-call score of the fitted dose curve at least 0.9, where 1 is the maximum; inactive means score below 0.9.
# output must be one of true for active, false for inactive

Use the examples below as a reference point.
compound=Cn1c(=O)cc(Oc2ccc(F)cc2F)c2cnc(NCC(C)(C)O)nc21 assigned_category=false
compound="O=C1OC(=O)C2C3C=CC(C3)C12 (stereo unspecified)" assigned_category=false
compound=O=C(NS(=O)(=O)/C=C/c1ccccc1)c1ccc(F)cc1Cl assigned_category=true

Q: Give the logged outcome of this assay for the following compound: CCNc1ccccc1
Ans: false

Q: Next up: Oc1ccc2c(c1)-c1ccccc1C2
Ans: true

Q: Repeat for the following compound: CC(C)CCO
Ans: false

Q: // next record CN(C)c1ccc(N=NS(=O)(=O)O)cc1
Ans: false

Q: Try this compound too: Nc1cccc(N)c1
Ans: false

Q: Next up: O=C(O)c1cc(N=Nc2ccc(S(=O)(=O)Nc3ccccn3)cc2)ccc1O
Ans: false

Q: Similarly, CC1=CC(=O)CC(C)(C)C1 ?
Ans: false

###

Assay: APR_HepG2_CellCycleArrest_72hr: Apredica 72-hour HepG2 Assay for Cell Cycle Arrest (AID 2282914)
Conditions: high-content imaging, actives raise or lower the signal
Activity calls are given as the source filed them. The calls were made as follows: active = hit-call score of the fitted dose curve at least 0.9, where 1 is the maximum; inactive = score below 0.9.
Select the correct class. Options are active, inactive and nothing else.

Field: example entries. Status: answers known.
input_smiles=COCCOc1cc2cc(C(=O)NC3CCN(C(C)C)CC3)n(CC(=O)Nc3ccc(Cl)cn3)c2cn1 assigned_category=inactive
input_smiles=CC(=O)OCCC(C)C assigned_category=inactive
input_smiles=C1=CCCC=CCCC=CCC1 assigned_category=inactive

Q: Test call for this molecule, please: O=C(O)c1cccc(N(Cc2cccnc2)c2ccc(OC(F)F)c(OC(F)F)c2)c1
Ans: inactive

Q: Lookup Cc1[nH]cnc1C[C@H]1CCc2c(C)c3ccccc3n2C1=O
Ans: active

Q: Proceed to Nc1ccc(Nc2ccccc2)cc1
Ans: active

###

Target: human Serotonin, 5-Hydroxytryptamine Receptor 2A (5HT2A), HTR2A (gene 3356) (UniProt P28223)
Sequence (P28223 whole entry, looked up): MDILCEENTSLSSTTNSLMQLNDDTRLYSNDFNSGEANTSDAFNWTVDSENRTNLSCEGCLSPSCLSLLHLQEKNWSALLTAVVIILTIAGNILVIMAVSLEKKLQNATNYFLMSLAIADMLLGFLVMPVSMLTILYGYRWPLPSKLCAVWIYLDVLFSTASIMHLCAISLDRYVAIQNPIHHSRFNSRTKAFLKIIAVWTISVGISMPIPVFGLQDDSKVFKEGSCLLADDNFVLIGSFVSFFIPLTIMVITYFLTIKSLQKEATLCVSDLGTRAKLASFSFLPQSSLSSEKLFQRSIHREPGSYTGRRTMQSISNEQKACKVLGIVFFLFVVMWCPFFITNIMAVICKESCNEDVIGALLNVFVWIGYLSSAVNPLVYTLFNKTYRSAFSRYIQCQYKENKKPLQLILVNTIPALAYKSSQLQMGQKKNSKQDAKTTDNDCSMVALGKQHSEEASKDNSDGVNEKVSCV
Assay: NVS_GPCR_h5HT2A: NovaScreen (NVS) G Protein-Coupled Receptor Assay for human Serotonin, 5-Hydroxytryptamine Receptor 2A (5HT2A) (AID 2283249)
Records with an inconclusive call do not appear. The source made the active and inactive calls. The calls were made as follows: active = hit-call score of the fitted dose curve at least 0.9, where 1 is the maximum; inconclusive = response in the unintended direction; inactive = score below 0.9.
Tick one outcome: active, inactive

molecule="CC/C(=C\\C(=N/O)C(N)=O)C(C)[N+](=O)[O-] (stereo not drawn)" assigned_category=inactive
molecule="CNS(=O)(=O)c1cc(C(=O)N2CCC(CCN3C4CCC3CC(n3c(C)nc5ccccc53)C4)(c3cccc(F)c3)CC2)c(Cl)cc1F (stereo not drawn)" assigned_category=active
molecule=Cc1[nH]cnc1C[C@H]1CCc2c(C)c3ccccc3n2C1=O assigned_category=active
molecule=CC[C@H]1CC[C@H](NCc2cc3c(cc2OC)[C@H]2C[C@H]2C(=O)N3C)[C@H](c2ccccc2)N1 assigned_category=active
molecule="CCOC(=O)c1ccc(C2CCC(NC[C@H](O)COc3ccc(O)c(NS(C)(=O)=O)c3)CC2)cc1 (stereo partly drawn)" assigned_category=active
molecule=COc1cccc(-c2ccc(/C=C\CN3CCCCCC3)cc2Cl)c1 assigned_category=active

Q: Please state the recorded outcome for this molecule: CCOC(=O)COc1ccc2c(c1)CC(NCC(O)c1cccc(Cl)c1)CC2 (stereo not drawn)
Ans: active

Q: Queued: CCN(C(=O)c1cc(C)cc(OC[C@H](C)Nc2ccncc2)c1)C(C)C
Ans: inactive

###

Experiment: BSK_SAg_SRB: Viability Assessment in the BioMAP Diversity Plus: SAg Assay (AID 2283096);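 further: cells read one day after compound addition; hits may be either gain or loss of signal compared with DMSO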
Conditions: primary human HUVEC with PBMC
Description: BSK_SAg is a cell-based, multiplexed-readout assay that uses umbilical vein endothelium and peripheral blood mononuclear cells, a human vascular primary cell co-culture, with measurements taken at 24 hours after chemical dosing in a 96-well plate.BSK_SAg_SRB is an assay component measured in the BSK_SAg assay. […] This assay endpoint, BSK_SAg_SRB, was analyzed with bidirectional fitting relative to DMSO as the negative control and baseline of activity. […]
Calls of active or inactive are those of the source. How the source made its calls: active means hit-call score of the fitted dose curve at least 0.9, where 1 is the maximum; inactive means score below 0.9.
measured parameter: AC50

Examples with answers:
compound=CC(C)(O)c1coc(S(=O)(=O)NC(=O)Nc2c3c(cc4c2CCC4)CCC3)c1 measured_parameter=AC50 reported_measurement=inactive
compound="Fc1ccccc1[C@@H](F)COC1CCC(Nc2ncnc3[nH]ncc23)CC1 (some centres undefined)" measured_parameter=AC50 reported_measurement="25.4 µM (active)"
compound="CNS(=O)(=O)c1cc(C(=O)N2CCC(CCN3C4CCC3CC(n3c(C)nc5ccccc53)C4)(c3cccc(F)c3)CC2)c(Cl)cc1F (centres undefined)" measured_parameter=AC50 reported_measurement="16.7 µM (active)"
compound=CC1=CC(=O)CC(C)(C)C1 measured_parameter=AC50 reported_measurement=inactive
compound="O=C(O)CC(O)C(=O)O (centres undefined)" measured_parameter=AC50 reported_measurement=inactive

# return AC50 for each item in the list
1. O=C(O)CCN(C1(C(=O)NO)CCCC1)S(=O)(=O)c1ccc(Oc2ccc(F)cc2)cc1
2. COC(=O)c1c(Cl)c(Cl)c(C(=O)OC)c(Cl)c1Cl
3. CNCc1ccc(NC(=O)c2c[nH]c3c2C(=O)CCC3)cc1
4. Cc1c(-c2cccnc2)c2ccccc2n1CCCCC(=O)O
5. Cn1c(=O)c2c(ncn2C)n(C)c1=O
6. CC(=O)c1ccc2c(c1)[C@H](NC(=O)c1ccc(F)cc1)[C@@H](O)C(C)(C)O2

Ans:
1. inactive
2. inactive
3. inactive
4. inactive
5. inactive
6. inactive

###

Read-out: Protein phosphatase 2A (PPP2R4), PTPA (gene 5524)
Test: LTEA_HepaRG_PPP2R4: Life Technologies and Expression Analysis (LTEA) Assay for Protein phosphatase 2A (PPP2R4) using HepaRG (AID 2283522)
Details: mRNA level, 48 h; actives raise or lower the signal
Activity calls are given as the source filed them. Rule for the calls: active = hit-call score of the fitted dose curve at least 0.9, where 1 is the maximum; inactive = score below 0.9.
Pick one: TRUE (active), FALSE (inactive)

Take a look at these entries with their results.
compound=COc1ccc2sc(C(=O)Nc3nnn[nH]3)c(OC(C)C)c2c1 assigned_category=FALSE
compound=CCOc1cccc(-n2cc(C(=O)N3CCN(c4cc(C(=O)O)c5ccccc5c4)CC3)nc2-c2ccc(C)cc2)c1 assigned_category=TRUE
compound=CCOCCO assigned_category=FALSE
compound=CN(C)c1ccc(Cc2ccc(N(C)C)cc2)cc1 assigned_category=FALSE

Q: Record lookup: outcome of this test for O=C1CCC(N2C(=O)c3ccccc3C2=O)C(=O)N1 (configuration not stated) ?
Ans: FALSE

Q: Moving on to CC(C)CCCCCCOC(=O)c1ccc(C(=O)OCCCCCCC(C)C)c(C(=O)OCCCCCCC(C)C)c1
Ans: FALSE

###

Assign AC50 to each entry below.
Assay: ATG_CRE_CIS: Attagene CIS-FACTORIAL HepG2 Assay for human cAMP Responsive Element (CRE) binding protein 3 (AID 2282926)
Conditions: HepG2 CRE cis-reporter, Attagene multiplexed mRNA; actives raise or lower the signal
Active and inactive are the calls of the source. Rule for the calls: active = hit-call score of the fitted dose curve at least 0.9, where 1 is the maximum; inactive = score below 0.9.

molecule=CC[C@H]1CC[C@H](NCc2cc3c(cc2OC)[C@H]2C[C@H]2C(=O)N3C)[C@H](c2ccccc2)N1 reported_measurement="58.6 µM (active)"

Switching to the query record.
Q: Which AC50 is listed for CCCCC(CC)COC(=O)CCCCCCCCC(=O)OCC(CC)CCCC (stereo not drawn) ?
Ans: 25.2 µM (active)
